// provenance: paper PMC3446843

# Tested on: isolated mouse liver mitochondria, complex I
# assay-notes: Oxygen consumption through complex I
# experimental-conditions: inhibition of oxygen consumption, malate + glutamate + ADP; 2µM rotenone = 100%
test-readout: O2 cons CI EC20

For CNS(=O)(=O)Cc1ccc2[nH]cc(CCN(C)C)c2c1 [Sumatriptan] the molecule record lists O2 cons CI EC20 as > 400 µM

O2 cons CI EC20 recorded for this molecule, C[C@@H]1C[C@H]2[C@@H]3CCC4=CC(=O)C=C[C@]4(C)[C@@]3(F)[C@@H](O)C[C@]2(C)[C@@]1(O)C(=O)CO [Dexamethasone] , is > 200 µM

Oc1cc(O)cc(O)c1 [Phloroglucinol] has a reported O2 cons CI EC20 of > 400 µM

Looking up CCOC(=O)[N-]c1cn(N2CCOCC2)n[o+]1 [Molsidomine] , I found its O2 cons CI EC20 recorded as > 200 µM
